# System: ragweed
# Assay info: Test A pre-/postemergence herbicide test
# Assay type: in vivo, Ambrosia elatior
# Condition: Preemergence, 500 g ai/ha; visual rating on 0 to 100 scale (0 no effect, 100 complete control)
# Source text: […]
Entries and their measured Ragweed plant response rating follow.
Measure: Ragweed plant response rating

>>> val("CN1CC(c2cccc(C(F)(F)F)c2)C(C(=O)Nc2cccc(F)c2F)C1=O (centres unmarked)")
50
>>> val("O=C1NCC(c2cccc(Oc3ccccc3)c2)C1C(=O)Nc1ccc(F)cc1F (centres unmarked)")
20
>>> val("O=C1NCC(c2ccc(Br)c(Br)c2)C1C(=O)Nc1ccc(F)cc1F (centres unmarked)")
0
>>> val("O=C1NCC(c2cccc(-n3ccc(C(F)(F)F)n3)c2)C1C(=O)Nc1cccc(F)c1F (centres unmarked)")
0
>>> val("O=C1NCC(c2cccc(I)c2)C1C(=O)Nc1cccc(F)c1F (centres unmarked)")
30
>>> val("O=C1NCC(c2ccc(SC(F)(F)F)cc2)C1C(=O)Nc1ccc(F)c(F)c1F (centres unmarked)")
0
>>> val("O=C1NCC(c2cccc(OC(F)F)c2)C1C(=O)Nc1ccccc1F (centres unmarked)")
80
>>> val("CCN1CC(c2ccc(C(F)(F)F)cc2)C(C(=O)Nc2ccccc2F)C1=O (centres unmarked)")
0
